TARGET_SYSTEM: T1, P3bHq
T1 chain: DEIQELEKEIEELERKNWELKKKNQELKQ
EXPERIMENTAL_PROTOCOL: two-hybrid library CCNG1;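 further: natural log of median RNA to DNA barcode read ratio; higher means stronger binding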
EXPERIMENTAL_READOUT: interaction score

Example entries and their recorded answers appear below.
BINDER	interaction score
DEIQELEKENEELERENWELEKEIQELEQ [P1bHq]	-1.03
DKNQELKKENEELERKIWELKKKIQELKQ [P10bHq]	-0.901

A. DKNQELKKKIEELKRKIWELKKENQELEQ [P12bHq]
B. DENQELEKEIEELEREIWELEKKNQELKQ [P11bHq]
Which of these two has the smaller recorded interaction score: A or B ? Please respond with the label that marks your chosen entry.
A
(A: -0.851, B: 1.18)
